Target or system Transitional endoplasmic reticulum ATPase (Homo sapiens); metric IC50; compiled from varied reports.

Here is how some molecules turned out for IC50.
structure.smiles: CC(C)(C)OC(=O)N1CCN(C(=O)Cn2ncc(-c3cc(F)c(OCc4nnc(S[C@H]5C=CCCC5)n4-c4cccnc4)cc3F)n2)CC1
IC50: < 50 nM

structure.smiles: Cc1nnc(-n2c(CN)cc3c(C(N)=O)cccc32)nc1NCc1ccccc1
IC50: < 10000 nM

structure.smiles: OCCn1ncc(-c2cc(F)c(OCc3nnc(S[C@H]4C=CCCC4)n3-c3cccnc3)cc2F)n1
IC50: < 50 nM

Here is the next item to consider.
[in] For the record CCOc1cc2c(C(N)=O)cccc2n1-c1nc2c(c(NCc3ccccc3)n1)CCCC2 , what value of IC50 is listed for Transitional endoplasmic reticulum ATPase (Homo sapiens)?
[out] < 30 nM

###

pIC50: −log10 of the molar value.
Target or system Transitional endoplasmic reticulum ATPase (Homo sapiens, UniProt P55072); metric pIC50; compiled from varied reports.
Sequence (P55072 whole entry): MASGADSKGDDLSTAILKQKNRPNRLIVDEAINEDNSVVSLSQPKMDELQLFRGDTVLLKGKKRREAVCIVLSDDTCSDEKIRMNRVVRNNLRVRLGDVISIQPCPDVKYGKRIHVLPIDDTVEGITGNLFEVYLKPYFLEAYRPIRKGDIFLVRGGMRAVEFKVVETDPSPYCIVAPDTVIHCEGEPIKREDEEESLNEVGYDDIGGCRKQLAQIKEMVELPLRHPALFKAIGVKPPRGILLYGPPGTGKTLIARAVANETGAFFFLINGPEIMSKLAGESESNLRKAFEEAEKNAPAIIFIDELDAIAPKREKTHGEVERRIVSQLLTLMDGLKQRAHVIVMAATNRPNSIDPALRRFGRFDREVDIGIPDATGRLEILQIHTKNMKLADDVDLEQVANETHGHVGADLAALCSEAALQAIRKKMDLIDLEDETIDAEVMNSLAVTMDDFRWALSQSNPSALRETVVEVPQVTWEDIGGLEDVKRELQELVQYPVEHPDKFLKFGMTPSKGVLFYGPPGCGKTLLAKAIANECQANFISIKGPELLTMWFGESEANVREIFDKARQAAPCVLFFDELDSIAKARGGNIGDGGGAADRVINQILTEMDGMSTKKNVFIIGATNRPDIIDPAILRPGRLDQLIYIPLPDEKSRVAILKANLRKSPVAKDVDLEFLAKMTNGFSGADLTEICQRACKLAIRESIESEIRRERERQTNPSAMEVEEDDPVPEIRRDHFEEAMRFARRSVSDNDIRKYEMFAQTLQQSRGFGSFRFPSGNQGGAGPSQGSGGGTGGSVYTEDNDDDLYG

Here is how some molecules turned out for pIC50.
molecule: COc1cccc2c(NCc3ccccc3)nc(-n3c(CN)cc4ccccc43)nc12
pIC50: > 7.00
--
molecule: CN1CCC(NC(=O)OCCn2cc(-c3cc(F)c(OCc4nnc(SC5C=CCCC5)n4-c4cccnc4)cc3F)nn2)CC1 (centres unmarked)
pIC50: > 6.00

[in] For the record Cc1cc2ccccc2n1-c1nc2c(c(NCc3ccccc3)n1)COC2 , what value of pIC50 is listed for Transitional endoplasmic reticulum ATPase (Homo sapiens, UniProt P55072)?
[out] > 6.52

[in] For the record COCOCC#Cc1ccc(OCc2cnc(SC3C=CCCC3)n2-c2cccnc2)cc1C (centres unmarked) , what value of pIC50 is listed for Transitional endoplasmic reticulum ATPase (Homo sapiens, UniProt P55072)?
[out] 7.00

[in] For the record COc1nc2c(C#N)cccc2n1-c1nc2c(c(NCc3ccccc3)n1)COCC2 , what value of pIC50 is listed for Transitional endoplasmic reticulum ATPase (Homo sapiens, UniProt P55072)?
[out] > 6.52

[in] For the record COc1cccc2c(NCc3ccccc3)nc(-n3c(OC)nc4ccccc43)nc12 , what value of pIC50 is listed for Transitional endoplasmic reticulum ATPase (Homo sapiens, UniProt P55072)?
[out] > 7.00

[in] For the record CC(C)c1cc2c(C(N)=O)cccc2n1-c1nc2c(c(NCc3ccccc3)n1)COCC2 , what value of pIC50 is listed for Transitional endoplasmic reticulum ATPase (Homo sapiens, UniProt P55072)?
[out] > 6.00

[in] For the record CCc1nnc(-n2c(C)cc3c(C(N)=O)cccc32)nc1NCc1ccccc1 , what value of pIC50 is listed for Transitional endoplasmic reticulum ATPase (Homo sapiens, UniProt P55072)?
[out] > 7.52

###

Target or system Transitional endoplasmic reticulum ATPase (Homo sapiens, UniProt P55072); metric IC50; compiled from varied reports.

[in] For the record Cc1cc2c(C(N)=O)cccc2n1-c1nc2c(c(NCc3ccccc3)n1)CCCC2 , what value of IC50 is listed for Transitional endoplasmic reticulum ATPase (Homo sapiens, UniProt P55072)?
[out] < 30 nM

[in] For the record Cc1cc2ccccc2n1-c1nc(NCc2ccccc2)c2cccc(C(N)=O)c2n1 , what value of IC50 is listed for Transitional endoplasmic reticulum ATPase (Homo sapiens, UniProt P55072)?
[out] < 300 nM

[in] For the record CNC(=O)OCCn1ncc(-c2cc(F)c(OCc3nnc(S[C@H]4C=CCCC4)n3-c3cccnc3)cc2F)n1 , what value of IC50 is listed for Transitional endoplasmic reticulum ATPase (Homo sapiens, UniProt P55072)?
[out] < 50 nM

[in] For the record NC(=O)c1cccc2c1cnn2-c1nc(NCc2cccc(F)c2)c2c(n1)OCCC2 , what value of IC50 is listed for Transitional endoplasmic reticulum ATPase (Homo sapiens, UniProt P55072)?
[out] < 30 nM
